Values from ChEMBL document CHEMBL5338805

TARGET_OR_SYSTEM: Voltage-gated inwardly rectifying potassium channel KCNH2 (Homo sapiens, UniProt Q12809)
Sequence (Q12809 whole entry): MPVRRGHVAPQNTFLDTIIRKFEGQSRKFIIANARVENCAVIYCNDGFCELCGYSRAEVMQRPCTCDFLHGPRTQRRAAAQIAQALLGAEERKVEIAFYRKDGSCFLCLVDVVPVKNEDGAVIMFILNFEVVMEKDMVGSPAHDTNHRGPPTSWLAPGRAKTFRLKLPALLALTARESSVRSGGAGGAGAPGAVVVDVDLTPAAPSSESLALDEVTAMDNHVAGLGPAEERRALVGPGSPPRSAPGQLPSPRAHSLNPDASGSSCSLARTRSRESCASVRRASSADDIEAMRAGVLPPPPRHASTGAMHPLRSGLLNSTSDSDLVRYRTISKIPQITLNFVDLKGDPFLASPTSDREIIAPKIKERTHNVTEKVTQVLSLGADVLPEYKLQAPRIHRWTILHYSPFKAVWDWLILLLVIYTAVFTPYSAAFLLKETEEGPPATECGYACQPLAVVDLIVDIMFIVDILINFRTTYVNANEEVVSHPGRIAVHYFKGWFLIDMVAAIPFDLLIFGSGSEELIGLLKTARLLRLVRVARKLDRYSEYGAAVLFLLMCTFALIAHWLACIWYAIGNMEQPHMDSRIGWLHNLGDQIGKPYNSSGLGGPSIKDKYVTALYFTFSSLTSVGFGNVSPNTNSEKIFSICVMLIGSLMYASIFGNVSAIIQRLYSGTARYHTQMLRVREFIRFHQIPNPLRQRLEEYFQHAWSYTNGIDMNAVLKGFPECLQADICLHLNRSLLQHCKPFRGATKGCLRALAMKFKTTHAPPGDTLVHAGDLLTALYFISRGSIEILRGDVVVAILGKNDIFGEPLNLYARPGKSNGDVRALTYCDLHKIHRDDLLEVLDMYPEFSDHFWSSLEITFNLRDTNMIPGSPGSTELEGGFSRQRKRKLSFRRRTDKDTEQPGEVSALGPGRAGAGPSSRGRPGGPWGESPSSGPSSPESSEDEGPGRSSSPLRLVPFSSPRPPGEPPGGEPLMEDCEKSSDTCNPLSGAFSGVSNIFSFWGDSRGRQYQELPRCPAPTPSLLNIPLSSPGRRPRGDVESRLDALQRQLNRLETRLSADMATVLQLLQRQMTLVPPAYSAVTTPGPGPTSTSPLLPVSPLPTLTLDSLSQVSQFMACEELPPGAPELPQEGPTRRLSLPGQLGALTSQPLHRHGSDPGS
EXPERIMENTAL_DETAILS: Inhibition of human ERG by whole cell patch clamp method
ENDPOINT_LABEL: IC50

Item under review: "Cc1cc(CN2C(=O)CN(c3ccc(C(F)(F)F)cc3)C2=O)cc(C)c1OC(C)(C)C(=O)O" . Reported IC50?
> 30 µM

====

EXPERIMENTAL_DETAILS: AUC in fasted Sprague-Dawley rat at 10 mg/kg, po measured at 0.083 to 24 hrs by LC-MS/MS analysis
Format: ADME, organism-based
Set-up: time lower 0.083 hrs, dose 10 mg/kg, time upper 24 hrs, route po
STUDY_CONDITIONS: in vivo
ENDPOINT_LABEL: AUC (ng·h/mL)
One number for each entry, in ng·h/mL.

Entry "Cc1cc(CN2C(=O)CN(c3ccc(C(F)(F)F)cc3)C2=O)cc(C)c1OC(C)(C)C(=O)O" : reported AUC = ?
22300

====

EXPERIMENTAL_DETAILS: Stability in human liver microsome assessed as half life at 1 uM by LC/MS-8050 analysis
Assay type: ADME
STUDY_CONDITIONS: liver microsomes
ENDPOINT_LABEL: half-life at 1 µM

half-life at 1 µM for "Cc1cc(CN2C(=O)CN(c3ccc(C(F)(F)F)cc3)C2=O)cc(C)c1OC(C)(C)C(=O)O" ?
> 2 h

====

EXPERIMENTAL_DETAILS: AUC in fasted Sprague-Dawley rat at 2 mg/kg, IV measured at 0.083 to 24 hrs by LC-MS/MS analysis
Format: ADME, organism-based
Set-up: dose 2 mg/kg, time upper 24 hrs, time lower 0.083 hrs, route iv
STUDY_CONDITIONS: in vivo
ENDPOINT_LABEL: AUC (ng·h/mL)
Give bare numbers, in ng·h/mL.

Value lookup for AUC; key = "Cc1cc(CN2C(=O)CN(c3ccc(C(F)(F)F)cc3)C2=O)cc(C)c1OC(C)(C)C(=O)O"
4250

====

Could you please report measured EC50 for the items listed next?
TARGET_OR_SYSTEM: Peroxisome proliferator-activated receptor delta (Homo sapiens)
Sequence (Q03181 whole entry): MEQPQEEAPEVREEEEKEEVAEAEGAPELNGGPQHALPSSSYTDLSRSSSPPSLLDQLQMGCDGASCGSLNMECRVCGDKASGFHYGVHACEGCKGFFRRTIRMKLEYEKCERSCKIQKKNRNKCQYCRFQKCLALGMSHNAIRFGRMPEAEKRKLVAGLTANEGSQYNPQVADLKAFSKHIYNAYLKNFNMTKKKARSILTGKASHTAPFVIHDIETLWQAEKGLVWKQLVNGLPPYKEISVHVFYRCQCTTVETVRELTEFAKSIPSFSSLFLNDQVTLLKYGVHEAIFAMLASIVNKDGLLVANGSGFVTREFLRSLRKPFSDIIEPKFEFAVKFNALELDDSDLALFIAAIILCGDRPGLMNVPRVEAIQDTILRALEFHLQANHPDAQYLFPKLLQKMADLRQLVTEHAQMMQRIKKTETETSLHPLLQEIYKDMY
EXPERIMENTAL_DETAILS: Agonist activity at human PPARdelta transfected in african green monkey COS7 cells assessed transactivation incubated for 16 hrs by luciferase assay
One number for each entry, in nM.

[[record]]
molecule = "CSc1ccc(N2CC(=O)N(Cc3cc(C)c(OC(C)(C)C(=O)O)c(C)c3)C2=O)cc1"
observed_measurement = 8.2


For the molecule shown here, Cc1cc(CN2C(=O)CN(c3ccc(C(F)(F)F)cc3)C2=O)cc(C)c1OC(C)C(=O)O (configuration not stated) , give the reported EC50.
8.4

====

TARGET_OR_SYSTEM: Peroxisome proliferator-activated receptor gamma (Homo sapiens)
Sequence (P37231 whole entry): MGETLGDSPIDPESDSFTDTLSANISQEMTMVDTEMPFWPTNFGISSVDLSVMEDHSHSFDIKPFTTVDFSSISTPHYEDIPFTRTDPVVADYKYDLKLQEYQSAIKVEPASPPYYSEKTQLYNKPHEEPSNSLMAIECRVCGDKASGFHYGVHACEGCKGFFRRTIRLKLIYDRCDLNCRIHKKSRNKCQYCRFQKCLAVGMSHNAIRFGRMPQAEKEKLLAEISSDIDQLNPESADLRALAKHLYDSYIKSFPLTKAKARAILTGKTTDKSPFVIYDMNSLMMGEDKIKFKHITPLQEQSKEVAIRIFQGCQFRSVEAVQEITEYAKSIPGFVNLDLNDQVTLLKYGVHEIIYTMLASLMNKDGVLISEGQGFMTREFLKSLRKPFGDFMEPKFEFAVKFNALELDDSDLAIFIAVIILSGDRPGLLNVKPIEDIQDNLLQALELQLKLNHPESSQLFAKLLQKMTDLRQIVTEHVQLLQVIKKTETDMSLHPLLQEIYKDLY
EXPERIMENTAL_DETAILS: Agonist activity at human PPARgamma transfected in african green monkey COS7 cells assessed transactivation incubated for 16 hrs by luciferase assay
ENDPOINT_LABEL: pEC50
One number for each entry, as −log10 of the molar value.

[[record]]
smiles_code = "Cc1cc(CCN2C(=O)CN(c3ccc(C(F)(F)F)cc3)C2=O)cc(C)c1OC(C)(C)C(=O)O"
observed_measurement = 6.56

[[record]]
smiles_code = "CSc1ccc(N2CC(=O)N(Cc3cc(C)c(OC(C)(C)C(=O)O)c(C)c3)C2=O)cc1"
observed_measurement = 5.93


Would you kindly look at the next entry?
Need pEC50 of "Cc1cc(CN2C(=O)CN(c3ccc(OC(F)(F)F)cc3)C2=O)cc(C)c1OC(C)(C)C(=O)O" , thanks.
5.86
